Tested on: cervical carcinoma cells HELA
Assay: In vitro cytotoxic activity (Calcein AM, 72 hours), HELA
Details: Homo sapiens, read-out: Cytotoxicity IC50 HeLa
Measured attribute: pIC50
Would you please state pIC50, meaning minus log10 of the concentration in mol/L, as a bare number?

Reported pIC50 for CC[C@H](CO)Nc1nc(NCc2ccccc2)c2ncn(C(C)C)c2n1 [RO] : what is it?
4.66

Also CCC(CO)Nc1nc(NCc2ccccc2N)c2ncn(CC)c2n1 (centres unmarked) [Compound 62] , if possible.
5.80

Also CCC(CO)Nc1nc(NCc2cc(Cl)ccc2N)c2ncn(C3CCCCC3)c2n1 (centres unmarked) [Compound 209] , if possible.
4.85

Also Cn1cnc2c(NCc3ccccc3N)nc(NC3CCC(N)CC3)nc21 (centres unmarked) [Compound 2] , if possible.
4.92

Also CC(C)n1cnc2c(NCc3ccccc3)nc(NC3CCC(N)CC3)nc21 (centres unmarked) [Compound A2141] , if possible.
4.55

Also CC(C)n1cnc2c(NCc3ccccc3N)nc(N[C@H]3CC[C@H](O)CC3)nc21 [Compound 103] , if possible.
4.74

Also CCC(CO)Nc1nc(NCc2ccccc2N)c2ncn(C(C)C)c2n1 (centres unmarked) [Compound 105] , if possible.
5.60

Also CC(O)CNc1nc(NCc2ccccc2N)c2ncn(C(C)C)c2n1 (centres unmarked) [Compound 104] , if possible.
4.82

Also CCC(CO)Nc1nc(NCc2cc(Cl)ccc2N)c2ncn(Cc3ccccc3)c2n1 (centres unmarked) [Compound 247] , if possible.
4.72

Also Cn1cnc2c(NCc3ccccc3)nc(NC3CCCCC3N)nc21 (centres unmarked) [Compound A1140] , if possible.
4.30

Also Nc1ccccc1CNc1nc(NC2CCC(N)CC2)nc2c1ncn2C1CCCCC1 (centres unmarked) [Compound 195] , if possible.
4.89

Also CCCCCCCNc1nc(NCc2ccccc2)c2ncn(C(C)C)c2n1 [Compound A218] , if possible.
4.19

Also Nc1ccccc1CNc1nc(NC2CCC(N)CC2)nc2c1ncn2Cc1ccccc1 (centres unmarked) [Compound 231] , if possible.
4.80

Also Cc1cccc(CNc2nc(NC3CCC(N)CC3)nc3c2ncn3C(C)C)c1N (centres unmarked) [Compound 138] , if possible.
5.04
